These measurements were taken from PubChem BioAssay (NCI).

Test system: NCI-H23 lung
Experiment: NCI tumour cell line growth inhibition, 48 h
MEASUREMENT_KIND: TGI

Answered examples (4):
C[C@]12CCC(=O)C[C@H]1CCC(O)[C@@H]2Br (stereo not given in full) ... > 100 µM
Cn1c(-c2cccc(N)c2)[n+](C)c2ccccc21 ... > 100 µM
COc1cc([C@@H]2c3cc4c(c(O[C@@H]5O[C@H]6CO[C@@H](C)O[C@H]6[C@H](O)[C@@H]5O)c3C[C@H]3COC(=O)[C@@H]32)OCO4)cc(OC)c1O ... > 100 µM
O=P1(N(CCCl)CCCl)Oc2ccc(Cl)cc2Sc2c(ccc(Cl)c2Cl)O1 (stereo not given) ... > 100 µM

Exercise: Would you kindly share the measured TGI for `O=C1c2ccccc2C(=O)N1CCCC(=O)n1cc(F)c(=O)[nH]c1=O` ?
Solution: > 100 µM

Exercise: And then O=C1CSC2=NC3=C(CSC/C3=C\c3ccc(Cl)cc3)C(c3ccc(Cl)cc3)N12 (stereo not given) , what is it?
Solution: > 100 µM

Exercise: // query: `O=C1OC(c2ccccc2)=N/C1=C\c1ccc(Br)cc1`
Solution: > 100 µM

Exercise: Likewise for `N#C/C(=C1C=C/C(=N/O)C(Cl)=C/1)c1ccc(Cl)cc1` ?
Solution: > 100 µM

Exercise: Consider next the compound `COc1ccc(Nc2nc3cc(C(F)(F)F)ccc3n3cccc23)cc1OC` in the same way.
Solution: 43.2 µM

Exercise: Would you mind doing `Clc1ccccc1CN1COc2c(cc(Cl)c3cccnc23)C1` as well?
Solution: 13.2 µM

====

Test system: ACHN renal
Assay: NCI tumour cell line growth inhibition, 48 h
Catalogue of TGI values
The answer is to be given in µM; state only the numeric part.

C[C@@H](CO)C1=C(O)c2ccc3c(c2C(=O)C1=O)CCCC3(C)C ... 43.2

Lab note: next compound to report on.
Exercise: Please give the measured TGI for this compound: `CC(C)(C)C(=O)OCCNc1nc(-c2ccccc2)nc2ccccc12`
Solution: 26.5

====

Items are presented alongside their recorded GI50.
Test system: SF-539 CNS
Assay: NCI tumour cell line growth inhibition, 48 h

The examples below pair each entry with its known result.
COc1cccc(/C=C2\COc3ccc(O)c(O)c3C2=O)c1 ... 1180 nM
COc1ccc2c(c1)O/C(=C\c1ncc([N+](=O)[O-])n1C)C2=O ... 1270 nM
COC(=O)c1c(C)c2n(c1C)C(=O)C(c1ccccc1)=C2 ... > 88800 nM

Exercise: Find the recorded GI50 belonging to `O=C(Nc1ccc(F)cc1F)c1cc(F)ccc1O` and report it.
Solution: 2850 nM

Exercise: Quick one: `COc1ccc2c(c1)c1c(C)c3cnccc3c(C)c1n2CCCN`
Solution: 175 nM

Exercise: Please do the same for `O=C1OCC(C#Cc2ccccc2)=C1Br` as well.
Solution: 2420 nM

====

Test system: SR leukemia
Experiment: NCI tumour cell line growth inhibition, 48 h
# TGI per record follows
# output: bare number, implied unit µM

# annotated cases, reported TGI shown
CC1(C)CC[C@]2(C(=O)O)CC[C@]3(C)C(=CC[C@@H]4[C@@]5(C)CC[C@H](OC6OC(C(=O)O)C(O)C(O)C6O)C(C)(C)[C@@H]5CC[C@]43C)[C@@H]2C1 (some centres undefined) ... 41.1
COc1ccc(C2Oc3ccc(Cl)cc3C=C2[N+](=O)[O-])cc1OC (centres undefined) ... 0.307
O=C1CSC2=NC3=C(CSC/C3=C\c3ccc(Cl)cc3)C(c3ccc(Cl)cc3)N12 (centres undefined) ... 56.3

Proceeding to the next molecule to report its TGI.
Exercise: Need TGI, item `Clc1ccccc1CN1COc2c(cc(Cl)c3cccnc23)C1`
Solution: 4
